From: patent US11479802B2

Target: HSD17B1 (Homo sapiens, UniProt P14061)
Construct: made in house
Sequence (P14061 1-328): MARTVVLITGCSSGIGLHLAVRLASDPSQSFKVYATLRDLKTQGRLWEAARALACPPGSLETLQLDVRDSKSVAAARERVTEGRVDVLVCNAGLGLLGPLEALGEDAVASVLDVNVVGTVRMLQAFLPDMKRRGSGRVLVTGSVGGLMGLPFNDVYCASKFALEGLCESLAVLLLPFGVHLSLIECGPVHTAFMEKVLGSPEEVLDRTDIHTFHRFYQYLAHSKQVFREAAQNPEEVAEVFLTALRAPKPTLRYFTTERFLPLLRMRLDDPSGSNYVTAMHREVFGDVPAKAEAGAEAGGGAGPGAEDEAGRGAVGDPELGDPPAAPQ
Test: Steroid substrate panel against HSD17B family member B1
Format: biochemical
Details: substrate at 50 μM; estradiol set as 100%
Kindly state Percent of Control (POC), B1 for each of the entries shown.
Note: unit % is implicit; provide only the numeric part.

Ask: // query Percent of Control (POC), B1 value for entry CC[C@H]1[C@@H](O)[C@@H]2[C@H](CC[C@]3(C)[C@@H]([C@H](C)CCC(=O)O)CC[C@@H]23)[C@@]2(C)CC[C@@H](O)C[C@@H]12 [6-ethylchenodeoxycholic acid]
Reply: 0.0

Ask: // query Percent of Control (POC), B1 value for entry C[C@]12CC[C@@H](O)C[C@@H]1CC[C@@H]1[C@@H]2[C@@H](O)C[C@@]2(C)[C@H]1CC[C@]2(O)C(=O)CO [5alpha-Tetrahydrocortisol]
Reply: −0.1

Ask: // query Percent of Control (POC), B1 value for entry C[C@]12CC[C@@H](O)C[C@@H]1CC[C@@H]1[C@@H]2CC[C@]2(C)C(=O)CC[C@@H]12 [Androsterone]
Reply: 0.0

Ask: // query Percent of Control (POC), B1 value for entry C[C@]12CC[C@H](O)C[C@@H]1CC[C@@H]1[C@@H]2CC[C@]2(C)[C@@H](O)CC[C@@H]12 [5alpha-androstane-3beta,17beta-diol]
Reply: 0.3

Ask: // query Percent of Control (POC), B1 value for entry C[C@]12CC[C@@H](O)C[C@H]1CC[C@@H]1[C@@H]2C(=O)C[C@]2(C)C(=O)CC[C@@H]12 [11-oxo-etiocholanolone]
Reply: −0.1

Ask: // query Percent of Control (POC), B1 value for entry CC1(C)[C@@H](O[C@H]2O[C@H](C(=O)O)[C@@H](O)[C@H](O)[C@H]2O[C@@H]2O[C@H](C(=O)O)[C@@H](O)[C@H](O)[C@H]2O)CC[C@]2(C)[C@H]3C(=O)C=C4[C@@H]5C[C@@](C)(C(=O)O)CC[C@]5(C)CC[C@@]4(C)[C@]3(C)CC[C@@H]12 [Glycyrrhizic acid]
Reply: −0.1

Ask: // query Percent of Control (POC), B1 value for entry C[C@]12CC[C@@H](O)C[C@@H]1CC[C@@H]1[C@@H]2C(=O)C[C@]2(C)C(=O)CC[C@@H]12 [11-oxo-androsterone]
Reply: 0.0

Ask: // query Percent of Control (POC), B1 value for entry C[C@]12CC[C@@H](O)C[C@@H]1CC[C@@H]1[C@@H]2CC[C@]2(C)C(=O)[C@H](O)C[C@@H]12 [16alpha-Hydroxyandrosterone]
Reply: 0.0

Ask: // query Percent of Control (POC), B1 value for entry C[C@]12CC[C@@H](O)C[C@@H]1CC[C@@H]1[C@@H]2CC[C@]2(C)[C@@H](O)CC[C@@H]12 [3a-androstanediol]
Reply: 0.0

Ask: // query Percent of Control (POC), B1 value for entry C[C@]12CCC(=O)C[C@@H]1CC[C@@H]1[C@@H]2CC[C@]2(C)[C@@H](O)CC[C@@H]12 [DHT, dihydroxy testosterone (DHT)]
Reply: 0.4

Ask: // query Percent of Control (POC), B1 value for entry C[C@]12CC[C@@H](O)C[C@H]1CC[C@@H]1[C@@H]2C(=O)C[C@@]2(C)[C@H]1CC[C@]2(O)C(=O)CO [TetrahydroCortisone]
Reply: 0.0

Ask: // query Percent of Control (POC), B1 value for entry C[C@H](O)[C@@]1(O)CC[C@H]2[C@@H]3CC[C@@H]4C[C@H](O)CC[C@]4(C)[C@H]3CC[C@@]21C [Pregnanetriol]
Reply: −0.1

Ask: // query Percent of Control (POC), B1 value for entry C[C@]12CC[C@@H]3c4ccc(O)cc4CC[C@H]3[C@@H]1CC[C@@H]2O [Estradiol]
Reply: 100

Ask: // query Percent of Control (POC), B1 value for entry C[C@]12CC[C@H]3[C@@H](CCC4=CC(=O)CC[C@@]43C)[C@@H]1CC[C@@H]2O [Testosterone]
Reply: 1.1

Ask: // query Percent of Control (POC), B1 value for entry C[C@]12CCC(O)C[C@@H]1CC[C@@H]1[C@@H]2CC[C@]2(C)[C@@H](O)CC[C@@H]12 (stereo partly shown) [Androstanediol]
Reply: 0.3

Ask: // query Percent of Control (POC), B1 value for entry CC(=O)OCC(=O)[C@H]1CC[C@H]2[C@@H]3CCC4=CC(=O)CC[C@]4(C)[C@H]3[C@@H](O)C[C@]12C [Corticosterone 21-acetate]
Reply: −0.1
